// provenance: patent US8940742B2

Lab note: IC50 readings collected with PI3K γ (Homo sapiens, UniProt P48736) for the following compounds.
Sequence (P48736 whole entry): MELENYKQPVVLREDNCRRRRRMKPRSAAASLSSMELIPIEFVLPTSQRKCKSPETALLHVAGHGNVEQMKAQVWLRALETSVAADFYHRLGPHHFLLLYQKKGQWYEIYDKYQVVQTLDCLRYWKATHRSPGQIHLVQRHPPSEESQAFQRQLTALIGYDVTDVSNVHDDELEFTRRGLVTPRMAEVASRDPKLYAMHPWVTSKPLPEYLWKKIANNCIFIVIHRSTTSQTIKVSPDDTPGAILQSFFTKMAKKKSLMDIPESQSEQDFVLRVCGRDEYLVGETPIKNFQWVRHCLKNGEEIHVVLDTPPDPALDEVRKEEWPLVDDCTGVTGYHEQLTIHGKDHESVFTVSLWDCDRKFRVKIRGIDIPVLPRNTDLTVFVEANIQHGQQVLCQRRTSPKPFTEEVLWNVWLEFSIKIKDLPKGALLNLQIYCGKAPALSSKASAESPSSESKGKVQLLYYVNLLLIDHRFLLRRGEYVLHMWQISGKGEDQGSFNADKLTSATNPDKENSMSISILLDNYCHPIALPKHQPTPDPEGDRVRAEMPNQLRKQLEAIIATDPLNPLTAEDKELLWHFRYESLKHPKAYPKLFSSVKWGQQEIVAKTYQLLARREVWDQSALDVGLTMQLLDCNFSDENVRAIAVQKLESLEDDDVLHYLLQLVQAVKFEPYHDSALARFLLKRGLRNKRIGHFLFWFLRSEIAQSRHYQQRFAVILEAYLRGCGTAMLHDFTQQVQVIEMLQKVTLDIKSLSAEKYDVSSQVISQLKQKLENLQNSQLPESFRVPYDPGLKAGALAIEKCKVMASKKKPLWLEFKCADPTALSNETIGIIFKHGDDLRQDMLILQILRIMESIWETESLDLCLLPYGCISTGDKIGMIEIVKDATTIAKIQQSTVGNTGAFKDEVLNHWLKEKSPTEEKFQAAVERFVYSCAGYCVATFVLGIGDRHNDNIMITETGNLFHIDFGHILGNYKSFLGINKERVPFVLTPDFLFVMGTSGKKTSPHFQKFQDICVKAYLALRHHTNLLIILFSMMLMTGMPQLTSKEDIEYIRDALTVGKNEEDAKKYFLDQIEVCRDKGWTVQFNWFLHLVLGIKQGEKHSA

The following compounds have reported results that may help.
- smilesStr: "C[C@H](NC(=O)c1c(N)nn2cccnc12)c1cc2cccc(C#CCNC(=O)[C@@H]3CCC(=O)O3)c2c(=O)n1-c1ccccc1"
  targetOrTestSystem: "PI3K γ (Homo sapiens, UniProt P48736)"
  assayValue: "< 100 nM"
- smilesStr: "CC(C)Oc1ccc(-c2cnc(N)c(C(=O)N[C@@H](C)c3cc4cccc(Cl)c4c(=O)n3-c3ccccc3)n2)cn1"
  targetOrTestSystem: "PI3K γ (Homo sapiens, UniProt P48736)"
  assayValue: "1000 to 10000 nM"
- smilesStr: "C[C@H](NC(=O)c1c(N)nn2cccnc12)c1cc2cccc(N3CCOCC3)c2c(=O)n1-c1ccccc1"
  targetOrTestSystem: "PI3K γ (Homo sapiens, UniProt P48736)"
  assayValue: "1000 to 10000 nM"
- smilesStr: "C[C@H](NC(=O)c1nc(-c2cncc(NS(C)(=O)=O)c2)cnc1N)c1cc2cccc(Cl)c2c(=O)n1C1CC1"
  targetOrTestSystem: "PI3K γ (Homo sapiens, UniProt P48736)"
  assayValue: "< 100 nM"
- smilesStr: "CC(C)Oc1cc(-c2cccc3nc([C@H](C)NC(=O)c4c(N)nn5cccnc45)n(-c4ccccc4)c(=O)c23)ccn1"
  targetOrTestSystem: "PI3K γ (Homo sapiens, UniProt P48736)"
  assayValue: "1000 to 10000 nM"

Go through the list and state IC50 for each entry.
1. C[C@H](NC(=O)c1nc(-c2cccc(S(=O)(=O)NC(C)(C)C)c2)cnc1N)c1cc2cccc(Cl)c2c(=O)n1-c1ccccc1
2. CC(C)Nc1cccc2cc([C@H](C)NC(=O)c3c(N)nn4cccnc34)n(-c3ccccc3)c(=O)c12

**Result**
["100 to 1000 nM", "> 10000 nM"]

Go through the list and state IC50 for each entry.
1. C=CC(=O)NCC#Cc1cccc2cc([C@H](C)NC(=O)c3c(N)nn4cccnc34)n(-c3ccccc3)c(=O)c12
2. CNCCn1c([C@H](C)NC(=O)c2c(N)nn3cccnc23)cc2cccc(Cl)c2c1=O

**Result**
1. < 100 nM
2. 1000 to 10000 nM
